Test system: Leishmania braziliensis
Test: Antileishmanial activity against Leishmania braziliensis
Format: functional, organism-based
pIC50: −log10 of the molar value.

smilesStructure	experimentalSystem	pIC50
O=S(=O)(c1ccc(Cl)cc1)N1CCNCC1	Leishmania braziliensis	5.35

* * *

Experiment: Cytotoxicity against mouse L929 cells
Assay type: toxicity, cell-based
measuredEndpoint: CC50 (µM)

smilesStructure	unitsOfMeasure	experimentalValue
O=S(=O)(c1ccc(Cl)cc1)N1CCNCC1	µM	227

* * *

Test system: Trypanosoma cruzi
Assay: Antitrypanosomal activity against Trypanosoma cruzi Tulahuen expressing Escherichia coli beta-galactosidase infected in L929 cells pretreated with parasite for 50 hrs followed by compound addition and measured after 96 hrs
Type: functional, organism-based
Each record gets a class by IC50: Low (below 8 µM), Mid (8 µM to below 100 µM), High (100 µM or more)

smilesStructure	assignedLabel
O=C(c1ccc(-n2cnnn2)cc1)N1CCN(S(=O)(=O)c2ccc(Cl)cc2)CC1	High
N#Cc1ccc(C(=O)N2CCN(S(=O)(=O)c3ccc(Cl)cc3)CC2)cc1	High
NCCOc1ccc(C(=O)N2CCN(S(=O)(=O)c3ccc(Cl)cc3)CC2)cc1	High
COc1ccc(S(=O)(=O)N2CCN(c3ccc(OCCN(C)C)cc3)CC2)cc1	Low
CN(C)CCOc1ccc(N2CCN(S(=O)(=O)c3ccccc3Br)CC2)cc1	Low
CC(=O)Nc1ccc(S(=O)(=O)N2CCN(c3ccc(OCCN(C)C)cc3)CC2)cc1	High
O=C(c1ccc(N2CCNCC2)nc1)N1CCN(S(=O)(=O)c2ccc(Cl)cc2)CC1	Mid
CN(C)CCOc1cccc(C(=O)N2CCN(S(=O)(=O)c3ccc(Cl)cc3)CC2)c1	High
O=C(c1ccc([N+](=O)[O-])cc1)N1CCN(S(=O)(=O)c2ccc(Cl)cc2)CC1	High
N#CCOc1ccc(C(=O)N2CCN(S(=O)(=O)c3ccc(Cl)cc3)CC2)cc1	High
CN(C)CCOc1cccc(N2CCN(S(=O)(=O)c3ccc(Cl)cc3)CC2)c1	High
CN(C)CCOc1ccc(N2CCN(S(=O)(=O)c3ccc(F)cc3)CC2)cc1	Low
CN(C)CCOc1ccc(N2CCN(C(=O)c3ccc(Cl)cc3)CC2)cc1	Low
COc1ccc(OC)c(S(=O)(=O)N2CCN(c3ccc(OCCN(C)C)cc3)CC2)c1	Mid
CN(C)CCNc1ccc(C(=O)N2CCN(S(=O)(=O)c3ccc(Cl)cc3)CC2)cn1	Mid
O=S(=O)(c1ccc(F)cc1)N1CCN(c2ccccc2)CC1	High
CN(C)CCOc1ccc(N2CCN(S(=O)(=O)c3ccccc3)CC2)cc1	Mid
CN(C)CCOc1ccccc1C(=O)N1CCN(S(=O)(=O)c2ccc(Cl)cc2)CC1	High
CN(C)CCOc1ccc(N2CCN(S(=O)(=O)c3ccc(Br)cc3)CC2)cc1	Mid
N#CCOc1ccc(N2CCN(S(=O)(=O)c3ccc(Cl)cc3)CC2)cc1	Low
CN(C)CCOc1ccc(N2CCN(S(=O)(=O)c3ccc(N)cc3)CC2)cc1	High

* * *

Assay: Cytotoxicity against human THP-1 cells
Type: toxicity, cell-based

smilesStructure	CC50 / µM
O=S(=O)(c1ccc(Cl)cc1)N1CCNCC1	1250

* * *

Assay: Selectivity index, ratio of CC50 for human THP-1 cells to IC50 for Leishmania braziliensis MHOM/BR/75/M2904 expressing red fluorescence protein infected in THP-1 cells
Type: toxicity, cell-based
Conditions: read-out: Ratio CC50/IC50
measuredEndpoint: selectivity ratio

smilesStructure	resultModifier	experimentalValue
N#CCOc1ccc(C(=O)N2CCN(S(=O)(=O)c3ccc(Cl)cc3)CC2)cc1	=	516
COc1ccc(OC)c(S(=O)(=O)N2CCN(c3ccc(OCCN(C)C)cc3)CC2)c1	=	5
CN(C)CCOc1ccccc1C(=O)N1CCN(S(=O)(=O)c2ccc(Cl)cc2)CC1	>	69.5
